Just for reference, the supplement of paper PMC10307832 is where these values come from.

test system: LCLC-97TM1; experiment: relative viability (nuclei count vs DMSO), 5 days (fraction); higher = more cells survive; settings: first compound 0.8 µM
readout_label: relative viability
// no unit string in output, number only

Solved cases (3 shown):
# compound, relative viability
measured = [
    ("C=C1C(=O)O[C@@H](CCCCCCCC)[C@@H]1C(=O)O [C-75] + Nc1ncn([C@H]2C[C@H](O)[C@@H](CO)O2)c(=O)n1 [Decitabine] (partner 2 µM)", 0.206),
    ("C=C1C(=O)O[C@@H](CCCCCCCC)[C@@H]1C(=O)O [C-75] + CC(C)C[C@H](NC(=O)[C@H](Cc1ccccc1)NC(=O)c1cnccn1)B(O)O [Bortezomib] (partner 0.002 µM)", 0.222),
    ("Oc1nc(-c2ccc(C(F)(F)F)cc2)nc2c1CSCC2 [XAV939] + CS(=O)(=O)CCNCc1ccc(-c2ccc3ncnc(Nc4ccc(OCc5cccc(F)c5)c(Cl)c4)c3c2)o1 [Lapatinib] (partner 2 µM)", 0.668),
]

What relative viability value was documented for this compound, C=C1C(=O)O[C@@H](CCCCCCCC)[C@@H]1C(=O)O [C-75] + NC(=O)Nc1cc(-c2cccc(F)c2)sc1C(=O)N[C@H]1CCCNC1 [AZD7762] (partner 0.2 µM) ?
0.218

What relative viability value was documented for this compound, C=C1C(=O)O[C@@H](CCCCCCCC)[C@@H]1C(=O)O [C-75] + CCNC(=O)c1noc(-c2cc(C(C)C)c(O)cc2O)c1-c1ccc(CN2CCOCC2)cc1 [Luminespib] (partner 0.01 µM) ?
0.852

What relative viability value was documented for this compound, Oc1nc(-c2ccc(C(F)(F)F)cc2)nc2c1CSCC2 [XAV939] + C[C@]1(O)C[C@@H](c2nc(-c3ccc4ccc(-c5ccccc5)nc4c3)c3c(N)nccn32)C1 [Linsitinib] (partner 1 µM) ?
0.206

What relative viability value was documented for this compound, C=C1C(=O)O[C@@H](CCCCCCCC)[C@@H]1C(=O)O [C-75] + Nc1nc2[nH]cc(CCc3ccc(C(=O)N[C@@H](CCC(=O)O)C(=O)O)cc3)c2c(=O)[nH]1 [Pemetrexed] (partner 0.2 µM) ?
0.177

What relative viability value was documented for this compound, C=C1C(=O)O[C@@H](CCCCCCCC)[C@@H]1C(=O)O [C-75] + CC(=O)c1c(C)c2cnc(Nc3ccc(N4CCNCC4)cn3)nc2n(C2CCCC2)c1=O [Palbociclib] (partner 0.5 µM) ?
0.177

What relative viability value was documented for this compound, C=C1C(=O)O[C@@H](CCCCCCCC)[C@@H]1C(=O)O [C-75] + CS(=O)(=O)N1CCN(Cc2cc3nc(-c4cccc5[nH]ncc45)nc(N4CCOCC4)c3s2)CC1 [Pictilisib] (partner 1 µM) ?
0.265

What relative viability value was documented for this compound, C=C1C(=O)O[C@@H](CCCCCCCC)[C@@H]1C(=O)O [C-75] + CS(=O)(=O)CCNCc1ccc(-c2ccc3ncnc(Nc4ccc(OCc5cccc(F)c5)c(Cl)c4)c3c2)o1 [Lapatinib] (partner 2 µM) ?
0.881

###

test system: NCI-H3122; test: relative viability (nuclei count vs DMSO), 5 days (fraction); higher = more cells survive; settings: first compound 0.1 µM
Attribute: relative viability
// no unit string in output, number only

# compound, target_system, readout_label, reported
records = [
    ("NC(=O)Nc1cc(-c2cccc(F)c2)sc1C(=O)N[C@H]1CCCNC1 [AZD7762] + CS(=O)(=O)N1CCN(Cc2cc3nc(-c4cccc5[nH]ncc45)nc(N4CCOCC4)c3s2)CC1 [Pictilisib] (partner 1 µM)", "NCI-H3122", "relative viability", 0.638),
]

What relative viability value was documented for this compound, NC(=O)Nc1cc(-c2cccc(F)c2)sc1C(=O)N[C@H]1CCCNC1 [AZD7762] + C[C@@H](Oc1cc(-c2cnn(C3CCNCC3)c2)cnc1N)c1c(Cl)ccc(F)c1Cl [Crizotinib] (partner 1 µM) ?
0.329

What relative viability value was documented for this compound, NC(=O)Nc1cc(-c2cccc(F)c2)sc1C(=O)N[C@H]1CCCNC1 [AZD7762] + CC(C)C[C@H](NC(=O)[C@H](Cc1ccccc1)NC(=O)c1cnccn1)B(O)O [Bortezomib] (partner 0.002 µM) ?
1.05

What relative viability value was documented for this compound, NC(=O)Nc1cc(-c2cccc(F)c2)sc1C(=O)N[C@H]1CCCNC1 [AZD7762] + C[C@]1(O)C[C@@H](c2nc(-c3ccc4ccc(-c5ccccc5)nc4c3)c3c(N)nccn32)C1 [Linsitinib] (partner 1 µM) ?
1.05

What relative viability value was documented for this compound, NC(=O)Nc1cc(-c2cccc(F)c2)sc1C(=O)N[C@H]1CCCNC1 [AZD7762] + COc1cccc2cc(-c3nc([C@H]4CC[C@H](C(=O)O)CC4)n4ncnc(N)c34)[nH]c12 [OSI-027] (partner 0.5 µM) ?
0.995
